# Test system: MM.1S cells
# assayComment: MM.1S cell proliferation inhibition (MTS assay)
# Format: cell-based
# conditionSummary: Homo sapiens, MM1.S, 168 h, 7 days incubation, read-out: MM1.S (IC50, Inhibitory Activity of Compounds on MM.1S Cell Proliferation)
pIC50: −log10 of the molar value.
quantity: pIC50

molecule: C[C@H](NC(=O)c1ccc2c(=O)n(C3CCC(=O)NC3=O)[nH]c2c1)c1ccc(Cl)cc1 (stereo partly drawn) [Compound D30]
pIC50: < 5.00

Return reported pIC50; argument: O=C1CCC(n2[nH]c3c(OCc4ccc(CN5CCN(c6ccc(F)cc6F)CC5)cc4)cccc3c2=O)C(=O)N1 (stereo not drawn) [Compound D7]
> 6.70

Requested read-out: pIC50. Entry: O=C1CCC(n2[nH]c3c(OCc4ccc(CN5CCN(c6ccc(Cl)cc6Cl)CC5)cc4)cccc3c2=O)C(=O)N1 (stereo not drawn) [Compound D12]
> 6.70

----------
# System: MM.1S cells
# assayComment: MM.1S cell proliferation inhibition (MTS assay)
# Format: cell-based
# conditionSummary: Homo sapiens, MM1.S, 168 h, 7 days incubation, read-out: MM1.S (IC50, Inhibitory Activity of Compounds on MM.1S Cell Proliferation)
pIC50: −log10 of the molar value.
quantity: pIC50

// lookup pIC50 for C[C@@H](NC(=O)c1ccc2c(=O)n(C3CCC(=O)NC3=O)[nH]c2c1)c1ccccc1 (stereo partly drawn)
< 5.00

Which value of pIC50 has been reported for Cc1ccc(CNC(=O)c2ccc3c(=O)n(C4CCC(=O)NC4=O)[nH]c3c2)cc1 (stereo not drawn) in the records?
< 5.00

pIC50 lookup needed for O=C1CCC(n2[nH]c3c(OCc4ccc(CN5CCN(c6ccc(F)cc6)CC5)cc4)cc(F)cc3c2=O)C(=O)N1 (stereo not drawn) , thanks.
> 6.70

Record request: pIC50 value, item C[C@H](NC(=O)c1ccc2c(=O)n(C3CCC(=O)NC3=O)[nH]c2c1)c1ccc(F)cc1F (stereo partly drawn)
< 5.00

Consider the molecule shown here: Cn1c2c(OCc3ccc(CN4CCOCC4)cc3)cccc2c(=O)n1C1CCC(=O)NC1=O (stereo not drawn) What is its recorded pIC50?
> 6.70

----------
# System: MM.1S cells
# assayComment: MM.1S cell proliferation inhibition (MTS assay)
# Format: cell-based
# conditionSummary: Homo sapiens, MM1.S, 168 h, 7 days incubation, read-out: MM1.S (IC50, Inhibitory Activity of Compounds on MM.1S Cell Proliferation)
Entries annotated with measured IC50

Worked cases, answers included:
compound: O=C1CCC(n2[nH]c3cc(C(=O)N[C@@H](c4ccccc4)C(F)(F)F)ccc3c2=O)C(=O)N1 (stereo partly shown) [Compound D35]
IC50: > 10 µM

compound: O=C1CCC(n2[nH]c3c(OCc4ccc(CN5CCN(c6ccc(F)cc6F)CC5)cc4)cc(F)cc3c2=O)C(=O)N1 (stereo not shown) [Compound D15]
IC50: < 0.2 µM

compound: O=C1CCC(n2[nH]c3cc(C(=O)NCc4ccc(Cl)cc4)ccc3c2=O)C(=O)N1 (stereo not shown) [Compound D29]
IC50: > 10 µM

So what's the measured IC50 for this one? Cc1cccc2c1OCC[C@H]2NC(=O)c1ccc2c(=O)n(C3CCC(=O)NC3=O)[nH]c2c1 (stereo partly shown) [Compound D42]
> 10 µM

Recorded IC50 of O=C1CCC(n2[nH]c3cc(C(=O)NCc4ccccc4)ccc3c2=O)C(=O)N1 (stereo not shown) [Compound D46] , please.
> 10 µM

Could you tell me which IC50 is on file for O=C1CC[C@H](n2[nH]c3cc(CNC(=O)C(F)(F)c4ccc(Cl)cc4)ccc3c2=O)C(=O)N1 [Compound D44] ?
> 10 µM

Sample Cc1ccc(N2CCN(C(=O)c3ccc(COc4cccc5c(=O)n(C6CCC(=O)NC6=O)[nH]c45)cc3)CC2)c(F)c1 (stereo not shown) [Compound D5] — what was its IC50?
< 0.2 µM

Recorded IC50 for N#Cc1ccc(N2CCN(Cc3ccc(COc4cc(F)cc5c(=O)n(C6CCC(=O)NC6=O)[nH]c45)cc3)CC2)c(F)c1 (stereo not shown) [Compound D14] , please?
< 0.2 µM

The reported measurements were obtained from patent EP4778920A1.
